Just for reference, PubChem BioAssay (NCI) is where these values come from.

Exercise: state measured TGI for each of the molecules provided.
test system: MCF7 breast; assay: NCI tumour cell line growth inhibition, 48 h

Ask: Which TGI value is on record for "COC1=Nc2ccccc2S(=O)(=O)C=C1" ?
Result: 12.3 µM

Ask: Repeat with "Cc1c(C)c(S(=O)(=O)N(CCCN)OCCCN)c(C)c2c1OC(C)(C)C2"
Result: 38.4 µM

Ask: Repeat with "O=C(Oc1ccccc1Cl)c1ccccc1Nc1ccnc(C(F)(F)F)c1"
Result: > 30.8 µM

Ask: Repeat with "Cc1c2c(n(CCN(C)C)c1C)NN=C(C#N)S2(=O)=O"
Result: > 100 µM

Ask: Repeat with "O=C1C(Cl)=C(Nc2cccc(O)c2)C(=O)N1c1ccccc1Cl"
Result: > 100 µM

Ask: Repeat with "CCCCCC/C=C\CCCCCCCCCC1=CC(=O)C=C(OC)C1=O"
Result: 15.3 µM

Ask: Repeat with "CCOC(=O)c1cc2c(n1Cc1ccccc1)-c1oncc1CC2"
Result: > 100 µM

Ask: Repeat with "Cc1cc(OCC(=O)N/N=C/C(Br)=C/c2ccccc2)nc(SCC(=O)N/N=C/C(Br)=C/c2ccccc2)n1"
Result: > 100 µM

Ask: Repeat with OC1CN2Cc3cc4c(cc3[C@]13C=C[C@@H](O)CC23)OCO4 (some centres undefined)
Result: > 100 µM

Ask: Repeat with "O=C1CCc2c(sc3[nH]c(=S)n(Cc4ccccc4)c(=O)c23)C1"
Result: 12.4 µM

Ask: Repeat with "CCc1nc(Cl)nc(Cl)c1Cl"
Result: 5.56 µM

Ask: Repeat with "O=C(CCCCCCSc1nc(-c2ccc(Cl)cc2)cc(-c2ccc(Cl)cc2)n1)NO"
Result: > 50 µM

Ask: Repeat with "Cc1nc2n(c(=O)c1CCN1CCC(c3noc4cc(F)ccc34)CC1)CCCC2"
Result: > 50 µM

Ask: Repeat with "O=C(c1ccccc1)c1sc2c(=O)c(C(=O)c3ccccc3)c(C(=O)c3ccccc3)sc2c(=O)c1C(=O)c1ccccc1"
Result: > 100 µM

Ask: Repeat with "COc1ccc(-c2c(-c3cc(OC)c4c(c3)OCO4)noc2N)cc1"
Result: 28.5 µM

Ask: Repeat with "C=CC[C@@]1(C)CCCCCCCCC[C@@](C)(CC=C)C1=O"
Result: > 100 µM

Ask: Repeat with "S=c1sc2nc(Cl)nc(Cl)c2s1"
Result: 25.2 µM

Ask: Repeat with Nc1nc(N)c2nc(CNc3ccc(C(=O)NC(CCCNC(=O)c4ccccc4C(=O)O)C(=O)O)cc3)cnc2n1 (centres undefined)
Result: > 100 µM

Ask: Repeat with "COc1ccc(-c2ccc(/C=N/n3c(C)nn(CN4CCN(C)CC4)c3=S)o2)c([N+](=O)[O-])c1"
Result: > 100 µM

Ask: Repeat with "N=C(N)SCc1cccc2c(=O)cc(-c3ccccc3)oc12"
Result: 16.3 µM

Ask: Repeat with NC(N)=NCCCC(NC(=O)OCCCCCCn1ccc(N)nc1=O)C(=O)O (centres undefined)
Result: > 100 µM

Ask: Repeat with "O=C(CCN1CCOCC1)Nc1ccc2sc3ccccc3c(=O)c2n1"
Result: > 100 µM

Ask: Repeat with "C=CCNC1=C2C[C@@H](C)C[C@@H](OC)[C@H](OC(=O)CN)[C@H](C)/C=C(\C)[C@@H](OC(N)=O)[C@H](OC)/C=C\C=C(/C)C(=O)NC(=CC1=O)C2=O"
Result: 12.8 µM

Ask: Repeat with CCC1CCc2nc3sc(C(=O)Nc4ccccc4C)c(N)c3cc2C1 (centres undefined)
Result: > 100 µM

Ask: Repeat with CC(C)C1OC(/C=C/c2ccccc2)OCC1(C)C (centres undefined)
Result: > 100 µM

Ask: Repeat with "O=C(O)CCCOc1cc(-c2ccccc2F)nc2cc3c(cc12)OCO3"
Result: > 100 µM

Ask: Repeat with Cc1cn(C2CC(N)C(C(=O)O)O2)c(=O)[nH]c1=O (centres undefined)
Result: > 100 µM

Ask: Repeat with "COc1ccc(-c2cc(-c3cc(OC)c(OC)c(OC)c3)c(C#N)c(N3CCOCC3)n2)cc1O"
Result: > 100 µM

Ask: Repeat with "CCCCn1sc(=O)n(Cc2ccc(CNC(=O)OCc3ccc4c(Br)cc(Br)c(O)c4n3)cc2)c1=O"
Result: > 100 µM

Ask: Repeat with "O=C(Nc1ccccc1F)c1cc2ccc(O)cc2oc1=Nc1cccc(C(F)(F)F)c1"
Result: > 100 µM

Ask: Repeat with "Cc1ccc(S(=O)(=O)Oc2nc3ccccc3nc2N(S(=O)(=O)c2ccc(C)cc2)S(=O)(=O)c2ccc(C)cc2)cc1"
Result: > 100 µM

Ask: Repeat with C=C(C)[C@@H]1CC[C@]2(COC3CCCCO3)CC[C@]3(C)[C@H](CC[C@@H]4[C@@]5(C)C=C(C=O)C(=O)C(C)(C)[C@@H]5CC[C@]43C)[C@@H]12 (some centres undefined)
Result: 3.43 µM

Ask: Repeat with COc1cc2cc(C(=O)N3CC(CCl)c4ccccc43)[nH]c2c(OC)c1OC (centres undefined)
Result: > 100 µM

Ask: Repeat with "CN(CCCNC(=O)c1nn(-c2ccc(Cl)cc2Cl)c2c1ccc1ccccc12)CCCNC(=O)c1nn(-c2ccc(Cl)cc2Cl)c2c1ccc1ccccc12"
Result: 2.9 µM

Ask: Repeat with CCN1C(=O)N(c2ccccc2)C2NN=c3s/c(=C4\C(=O)N(C(C)C)c5ccccc54)c(=O)n3C21 (centres undefined)
Result: > 100 µM

Ask: Repeat with "Clc1nc2n(c1/C=C/c1cccs1)CCS2"
Result: > 100 µM

Ask: Repeat with "C[C@]12[C@@H]3CC[C@H]1[C@@H](OC(=O)Nc1cc([N+](=O)[O-])cc([N+](=O)[O-])c1)C(=O)N2CC3"
Result: > 100 µM

Ask: Repeat with "Cc1ccc(/C=C/C(=O)c2cc(CN(C)C)c(O)c(CN(C)C)c2)cc1"
Result: 50.1 µM

Ask: Repeat with "N[C@@H]1CCCN(c2c(/C=C3\SC(=O)NC3=O)cccc2-c2ccccc2)C1"
Result: 27.1 µM
